// values below are reported pEC50
# Test system: NL-RLuc virus (recombinant HIV NL4-3 with Renilla Luciferase) in MT-2 cells
# Assay Text: Inhibition of HIV replication (NL-RLuc virus in MT-2 cells, luciferase readout)
# Assay type: cell-based, human immunodeficiency virus (HIV)
# Test Conditions: MT2, 120 h, NL-RLuc virus infecting MT-2 cells, 5 days of incubation, 10% FBS, luciferase quantitation; at least 2 experiments
pEC50: −log10 of the molar value.
Quantity Measured: pEC50

• Cc1nc2cc3nn2c(c1[C@H](OC(C)(C)C)C(=O)O)N1CCC(C)(CC1)OCC=CC[C@H](C)Oc1cc(F)c(F)cc1COC3 = 8.22
• Cc1nc2cc3nn2c(c1[C@H](OC(C)(C)C)C(=O)O)N1CCC(C)(CC1)OCCCCC(C(F)(F)F)Oc1cc(F)ccc1COC3 (stereo partly drawn) = 8.15
• Cc1ccc2c(c1)CCCCOC1(C)CCN(CC1)c1c([C@H](OC(C)(C)C)C(=O)O)c(C)nc3cc(nn13)COC2 = 8.70
